- studyTarget: α4β1 integrin (Homo sapiens, UniProt P05556+P13612)
- Construct: endogenous in cells; host or cells: Ramos cells
- Sequence (P13612 34-1032): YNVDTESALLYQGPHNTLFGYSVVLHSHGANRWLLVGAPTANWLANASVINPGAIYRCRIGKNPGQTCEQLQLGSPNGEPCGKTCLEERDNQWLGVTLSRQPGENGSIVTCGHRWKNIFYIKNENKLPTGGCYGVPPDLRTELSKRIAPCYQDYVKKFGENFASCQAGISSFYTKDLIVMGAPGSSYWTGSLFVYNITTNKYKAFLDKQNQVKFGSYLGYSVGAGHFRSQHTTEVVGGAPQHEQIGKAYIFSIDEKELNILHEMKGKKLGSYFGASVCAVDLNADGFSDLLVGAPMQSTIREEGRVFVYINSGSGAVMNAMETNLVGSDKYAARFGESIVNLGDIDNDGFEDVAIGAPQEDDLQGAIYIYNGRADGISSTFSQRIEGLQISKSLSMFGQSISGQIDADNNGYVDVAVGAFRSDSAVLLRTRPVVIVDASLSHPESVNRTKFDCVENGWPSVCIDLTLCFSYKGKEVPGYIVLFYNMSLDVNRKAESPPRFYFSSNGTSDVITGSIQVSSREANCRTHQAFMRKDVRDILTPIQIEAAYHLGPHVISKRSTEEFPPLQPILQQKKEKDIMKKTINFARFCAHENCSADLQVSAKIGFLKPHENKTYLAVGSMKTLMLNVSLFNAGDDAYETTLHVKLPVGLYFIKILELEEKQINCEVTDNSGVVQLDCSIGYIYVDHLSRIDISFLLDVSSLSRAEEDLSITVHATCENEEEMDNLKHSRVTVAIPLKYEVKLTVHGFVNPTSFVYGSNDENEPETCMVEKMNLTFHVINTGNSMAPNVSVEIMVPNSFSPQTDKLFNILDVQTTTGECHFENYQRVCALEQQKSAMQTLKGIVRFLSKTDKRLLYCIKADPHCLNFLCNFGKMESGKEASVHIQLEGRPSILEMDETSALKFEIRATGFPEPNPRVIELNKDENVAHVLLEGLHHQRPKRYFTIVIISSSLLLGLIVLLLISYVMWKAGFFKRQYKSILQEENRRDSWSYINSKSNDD
- Sequence (P05556 21-798): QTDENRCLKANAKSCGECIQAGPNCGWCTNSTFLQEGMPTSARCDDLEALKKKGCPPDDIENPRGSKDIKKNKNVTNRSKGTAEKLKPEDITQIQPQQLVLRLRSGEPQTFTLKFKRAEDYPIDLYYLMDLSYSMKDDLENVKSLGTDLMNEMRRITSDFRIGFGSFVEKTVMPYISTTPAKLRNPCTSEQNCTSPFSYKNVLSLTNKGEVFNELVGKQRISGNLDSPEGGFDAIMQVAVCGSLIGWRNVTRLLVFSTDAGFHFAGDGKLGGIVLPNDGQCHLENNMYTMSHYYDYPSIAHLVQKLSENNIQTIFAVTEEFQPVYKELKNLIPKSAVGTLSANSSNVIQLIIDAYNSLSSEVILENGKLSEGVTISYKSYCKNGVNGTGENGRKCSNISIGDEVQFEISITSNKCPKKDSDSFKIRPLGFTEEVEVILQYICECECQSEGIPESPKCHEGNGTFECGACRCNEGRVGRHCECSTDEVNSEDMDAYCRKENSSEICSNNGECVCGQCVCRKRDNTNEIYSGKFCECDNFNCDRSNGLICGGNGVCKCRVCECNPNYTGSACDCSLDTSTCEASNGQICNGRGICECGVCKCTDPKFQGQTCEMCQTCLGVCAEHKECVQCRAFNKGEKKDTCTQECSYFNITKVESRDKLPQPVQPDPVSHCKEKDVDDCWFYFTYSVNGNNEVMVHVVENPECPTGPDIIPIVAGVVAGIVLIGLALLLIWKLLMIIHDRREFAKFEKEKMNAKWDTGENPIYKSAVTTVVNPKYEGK
- measurementProtocol: Inhibition of adhesion of calcein AM-labeled Ramos cells to CS1 (fibronectin) peptide-conjugated ovalbumin
- Format: cell-based
- assaySetup: Table 3; Ramos cell adhesion to CS1-conjugated ovalbumin, 30 minutes at 37° C.
pIC50: −log10 of the molar value.
measurementName: pIC50

As a guide, the following entries are already answered.
Q: Return the recorded pIC50 value; entry: CCCCC(C(=O)N[C@@H](CC(=O)O)c1ccc2c(c1)OCO2)n1c(=O)c(Cc2ccccc2)cc2ccccc21 (stereo partly drawn)
Result: 5.70

Q: Tell me its pIC50 given `CCCC[C@@H](C(=O)N[C@@H](CC(=O)O)c1ccc2c(c1)OCO2)N1CC(=O)N(Cc2cccs2)[C@@H](Cc2ccccc2)C1=O` as the entry.
Result: 5.22

Q: Provide one value: measured pIC50 of CCCCC(C(=O)N[C@@H](CC(=O)O)c1ccc2c(c1)OCO2)n1cccc(NCc2cccs2)c1=O (stereo partly drawn)
Result: 5.89

Q: Report measured pIC50; entry is `O=C(O)C[C@H](NC(=O)C1(n2cccc(Cc3ccccc3)c2=O)CCCCC1)c1ccc2c(c1)OCO2`
Result: 4.30

(P) CCCC[C@@H](C(=O)N[C@@H](CC(=O)O)c1ccc2c(c1)OCO2)n1cccc(C(=O)c2ccccc2)c1=O
(Q) CCCC[C@@H](C(=O)N[C@@H](CC(=O)O)c1ccc2c(c1)OCO2)n1cccc(Cc2ccccc2)c1=O
(R) O=C(O)C[C@H](NC(=O)Cn1c(=O)n(Cc2ccccc2)c2ccccc21)c1ccc2c(c1)OCO2
Q: Let's sort these by pIC50, smallest first. Go ahead? Lab note: final answer is the ordered label list.
Result: P, R, Q

All values here come from patent US20030199692A1.
